Measured Population Tubulin-Different-Phenotype (%) of individual entries
tested on: Fibroblast; assay: Multiplex assay against human fibroblast; type: toxicity, cell-based; settings: 24 h, 1 µM, compound concentration 1 uM, replicate 2
The answer is to be given in %; state only the numeric part.

Some entries whose results are on file:
INSERT INTO assay_data (compound, result) VALUES
  ('CN[C@@H]1C[C@H]2O[C@@](C)([C@@H]1OC)n1c3ccccc3c3c4c(c5c6ccccc6n2c5c31)C(=O)NC4 [STAUROSPORINE]', 0),
  ('O=C1NC(=O)C(c2cnc3ccccn23)=C1c1cn2c3c(cc(F)cc13)CN(C(=O)N1CCCCC1)CC2 [LY-2090314]', 18),
  ('Cc1ccc2nc(NCCN)c3ncc(C)n3c2c1.O=C(O)C(F)(F)F.O=C(O)C(F)(F)F', 0),
  ('CCNc1cc(N[C@H]2CC[C@H](O)CC2)nc(Nc2ccc3c(ccn3Cc3ccccc3)c2)n1', 53),
  ('CCCS(=O)(=O)c1nc(NC2CC2)cc(-c2ccc3c(ccn3C3CC(C)(C)NC(C)(C)C3)c2)n1', 29);

Need Population Tubulin-Different-Phenotype (%) of CCCS(=O)(=O)Nc1ccc(F)c(C(=O)c2c[nH]c3ncc(Cl)cc23)c1F [PLX-4720] , thanks.
13

Also check C=CCn1c(=O)c2cnc(Nc3ccc(N4CCN(C)CC4)cc3)nc2n1-c1cccc(C(C)(C)O)n1 [ADAVOSERTIB]
12

Also check `Cl.Oc1ccc2c3c1O[C@H]1c4[nH]c5c(c4C[C@@]4(O)[C@@H](C2)N(CC2CC2)CC[C@]314)C[C@@]1(O)[C@H]2Cc3ccc(O)c4c3[C@@]1(CCN2CC1CC1)[C@H]5O4`
18

Also check CCOc1cc2ncc(C#N)c(Nc3ccc(OCc4ccccn4)c(Cl)c3)c2cc1NC(=O)/C=C/CN(C)C [NERATINIB]
11

Also check CCn1cc(-c2ccnc3[nH]c(-c4cccc(CN(C)C)c4)cc23)c(-c2ccc(NC(=O)N(C)C)cc2)n1 [GSK-1070916]
21

Also check `CCc1cccc(CC)c1NC(=O)c1nn(C)c2c1CCc1cnc(Nc3ccc(C(=O)NC4CCN(C)CC4)cc3OC(F)(F)F)nc1-2`
19
